test: Human HepG2 cell viability assay in 384 well format; format: toxicity, cell-based; set-up: dose 125 nL, time 70.5 hour; concentration not given beside the values; details: HepG2 cells, read-out: Inhibition
measured-quantity: cytotoxicity at 70.5 h

- compound: "CC(C)(C(=O)NCC1CCN(Cc2ncc[nH]2)C1)c1ccccc1 (centres undefined)"
  assay-value: "-5.7%"
- compound: "CCOc1cc(C)nc(N2CCN(C(=O)c3csnn3)CC2)n1"
  assay-value: "-12.5%"
- compound: "COCC1CN(Cc2ccc(OC)cc2)Cc2nnn(CC3CC3)c21 (centres undefined)"
  assay-value: "-4.99%"
- compound: "Cc1nnc(CN(C)CCc2nc(-c3cccc(Cl)c3)no2)n1C"
  assay-value: "-13.1%"
- compound: "Cc1ccc(C(=O)N2CC[C@@H]3[C@H]2CCC(=O)N3CC2CC2)o1"
  assay-value: "-0.589%"
- compound: "CCOCc1nn(C)c2c1CN(CCO)CC2"
  assay-value: "-6.16%"
- compound: "CN(Cc1ccccc1)CC(O)Cn1cnc2c(cnn2C)c1=O (centres undefined)"
  assay-value: "-5.87%"
- compound: "COCCCNC(=O)Nc1cccc2c1CCN(S(C)(=O)=O)C2"
  assay-value: "21.4%"
- compound: "Cc1nn(C)c(C)c1C(=O)NCc1cccnc1OC1CCCC1"
  assay-value: "-5.73%"
- compound: "N#Cc1cccc(C(=O)N2CC(c3nc(-c4cccnc4)no3)C2)c1"
  assay-value: "10%"
- compound: "Cc1nn(C)c(N(C)C)c1CNCc1cccc(Br)c1"
  assay-value: "-5.91%"
- compound: "Cc1ccc(N2CCCN(C(=O)CC3CCCO3)CC2)nn1 (centres undefined)"
  assay-value: "-18.7%"
- compound: "CC(NCc1ccc(C(N)=O)cc1)c1ccc(Cl)c(Cl)c1 (centres undefined)"
  assay-value: "-11.9%"
- compound: "O=C1[C@H]2CN(Cc3ccoc3)C[C@H]2CN1Cc1cccnc1"
  assay-value: "-11.8%"
- compound: "CCC1CCCCN1C(=O)Cn1cnc(C#N)n1 (centres undefined)"
  assay-value: "-4.5%"
- compound: "O=C(NCc1ccco1)[C@@]12CCO[C@@H]1CCN(CCN1CCCC1)C2"
  assay-value: "8.62%"
- compound: "CNC(=O)CN1CCOCC2(CCCN(CCc3ccccc3)C2)C1 (centres undefined)"
  assay-value: "-10.9%"
- compound: "CCC(O)CN1CCN(C(=O)CCc2c(C)noc2Cl)CC1 (centres undefined)"
  assay-value: "-12.7%"
- compound: "COc1ccc(NC(=O)C2OC(c3cccs3)=NN2C(C)=O)cc1 (centres undefined)"
  assay-value: "-1.98%"
- compound: "Cc1csc(N2CCN(Cc3cscn3)CC2C)n1 (centres undefined)"
  assay-value: "-4.06%"
- compound: "COC(=O)C1CN(Cc2nc(-c3ccccc3)cs2)C[C@@H](C)O1 (some centres undefined)"
  assay-value: "3.89%"
- compound: "CCCS(=O)(=O)N1CCOCC2(CCN(c3ccccn3)C2)C1 (centres undefined)"
  assay-value: "-11.6%"
- compound: "CC(C)c1nc(C2CCCN2CC(=O)Nc2ccc(Cl)cn2)no1 (centres undefined)"
  assay-value: "19.2%"
- compound: "O=C(c1cccc(Cn2ccnc2)c1)N1CCCC(n2ccnc2)C1 (centres undefined)"
  assay-value: "-16.1%"
